# EXPERIMENTAL DETAILS: NCI Yeast Anticancer Drug Screen. Data for the wt1 strain (AID 149);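 note: 0% = growth of vehicle-treated wt1 cultures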
# RECORDED CONDITIONS: S. cerevisiae wt1 strain (SPY 50644) growth inhibition; at 1.2 µM; hits give high values
About 79,000 compounds went through this panel and 15% of them were active in at least one assay; those are over-represented in the sample as a whole.
MEASUREMENT LABEL: growth inhibition (%)
Number only, in %; omit the unit.

Problem: May I ask what growth inhibition has been recorded for `COc1ccc(N2CN(C)CSC2=S)cc1` ?
Solution: -18

Problem: May I ask what growth inhibition has been recorded for CC1CCC2(C(=O)O)CCC3(C)C(=CCC4C5(C)CC(O)C(O)C(C)(CO)C5C(O)CC43C)C2C1C (stereo not given) ?
Solution: -17

Problem: May I ask what growth inhibition has been recorded for O=C1OC2C(O)COC2(OCc2c[nH]c3ccccc23)C1O (stereo not given) (tested in a mixture with another compound) ?
Solution: -1

Problem: May I ask what growth inhibition has been recorded for `O=C1C=CC(=O)N1c1ccc(N2C(=O)C=CC2=O)cc1` ?
Solution: 33

Problem: May I ask what growth inhibition has been recorded for `BrCc1ccccc1C(c1ccccc1)c1ccccc1` ?
Solution: -2

---

# EXPERIMENTAL DETAILS: NCI Yeast Anticancer Drug Screen. Data for the sgs1 strain (AID 173);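 note: 0% = growth of vehicle-only control cultures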
# RECORDED CONDITIONS: S. cerevisiae sgs1 mutant, at 100.0 µM, hits give high values
Compounds without any hit were thinned out: in the full panel of roughly 79,000, 15% have a hit.
Hi there, I'd appreciate the recorded growth inhibition for every entry that follows.
Number only, in %; omit the unit.

Problem: May I ask what growth inhibition has been recorded for `O=S(=O)(c1cc(Cl)ccc1O)c1cc(Cl)ccc1O` ?
Solution: 99

Problem: May I ask what growth inhibition has been recorded for `COc1cc2c(cc1C[N+](C)(C)CSc1ccccc1)-c1ccccc1CC2` ?
Solution: 99

Problem: May I ask what growth inhibition has been recorded for `S=c1[nH]c2c(Cl)c(Cl)c(Cl)c(Cl)c2[nH]1` ?
Solution: 96

Problem: May I ask what growth inhibition has been recorded for `Oc1ccc(C=Nc2ccccc2O)cc1` ?
Solution: 67

Problem: May I ask what growth inhibition has been recorded for CC(=O)Oc1ccc(N2C(=O)C3c4[nH]c5ccccc5c4C4CCC(C(C)(C)C)CC4C3C2=O)cc1 (configuration not stated) ?
Solution: 94

Problem: May I ask what growth inhibition has been recorded for `COc1cc(NCc2ccc3nc(N)nc(N)c3c2C)cc(OC)c1OC` ?
Solution: 75

Problem: May I ask what growth inhibition has been recorded for `COc1ccc(SCc2cc(OC)ccc2OC)cc1` ?
Solution: 0

Problem: May I ask what growth inhibition has been recorded for `O=C1c2ccccc2CCC1(Br)Br` ?
Solution: 99

Problem: May I ask what growth inhibition has been recorded for `CCCCCCCCCCCc1nc(N)n[nH]1` ?
Solution: 96

Problem: May I ask what growth inhibition has been recorded for `Cc1cc(Cl)ccc1NC(=O)/C(Cl)=C1/Sc2ccccc2NC1=O` ?
Solution: 31

Problem: May I ask what growth inhibition has been recorded for `Oc1ccc(Br)cc1C=NC1CCCCC1` ?
Solution: 98

Problem: May I ask what growth inhibition has been recorded for `O=C(N/N=C\c1c(Cl)cccc1Cl)N/N=C/c1c(Cl)cccc1Cl` ?
Solution: 5

---

# EXPERIMENTAL DETAILS: NCI Yeast Anticancer Drug Screen. Data for the mlh1 rad18 strain (AID 175)
# RECORDED CONDITIONS: S. cerevisiae mlh1 rad18 strain growth inhibition; at 50.0 µM; hits give high values
The panel holds about 79,000 compounds, 15% with a hit somewhere; the sample as a whole holds those more often. Calls of active or inactive are those of the source. Rule as the data show it: active = growth inhibition above about 70%; inactive = the rest.
MEASUREMENT LABEL: growth inhibition

Problem: May I ask what growth inhibition has been recorded for `COc1ccc(N=Nc2ccc3oc(=O)c(C(=O)Nc4ccccc4)cc3c2)cc1` ?
Solution: 85.7% (active)

Problem: May I ask what growth inhibition has been recorded for `CC(C)(O)c1ccccc1C(c1ccccc1)c1ccccc1` ?
Solution: 10.9% (inactive)

Problem: May I ask what growth inhibition has been recorded for `Cc1nc2c(ncn2CCO)c(=O)[nH]1` ?
Solution: -40.7% (inactive)

Problem: May I ask what growth inhibition has been recorded for CCN(CC)CC(O)C1CCC(c2ccccc2)CC1 (stereo unspecified) ?
Solution: 68.9% (inactive)

Problem: May I ask what growth inhibition has been recorded for COc1cc([C@@H]2c3cc4c(cc3[C@@H](OC3OC5COC(C)OC5C(O)C3O)[C@H]3COC(=O)[C@H]23)OCO4)cc(OC)c1O (stereo partly specified) ?
Solution: 64.8% (inactive)

Problem: May I ask what growth inhibition has been recorded for `Oc1ccc(C=Nc2ccccc2O)cc1` ?
Solution: 70% (active)

Problem: May I ask what growth inhibition has been recorded for `[N-]=[N+]=NC(c1ccccc1)(c1ccccc1)c1ccccc1` ?
Solution: 84.1% (active)

Problem: May I ask what growth inhibition has been recorded for `O=[N+]([O-])c1cccc2nc3ccccc3c(NCCc3cccc[n+]3[O-])c12` ?
Solution: 93.8% (active)

Problem: May I ask what growth inhibition has been recorded for `O=C(Nc1cccc(C(F)(F)F)c1)Oc1ccc(Cl)cc1C(=O)c1ccccc1` ?
Solution: 91.2% (active)

Problem: May I ask what growth inhibition has been recorded for `O=C1C=CC(=O)N1c1ccc(N2C(=O)C=CC2=O)cc1` ?
Solution: 92.5% (active)

Problem: May I ask what growth inhibition has been recorded for `COc1ccc(SCc2cc(OC)ccc2OC)cc1` ?
Solution: 21.3% (inactive)

Problem: May I ask what growth inhibition has been recorded for `C/C(=N\NC(=S)NC1CCCC1)c1ccccn1` ?
Solution: 91.5% (active)

Problem: May I ask what growth inhibition has been recorded for `CN(C)c1ccc(N=Nc2ccccn2)cc1` ?
Solution: 83.2% (active)

Problem: May I ask what growth inhibition has been recorded for `CN(C)CCNc1cccc2sc3ccc(O)cc3c(=O)c12` ?
Solution: 66.5% (inactive)

Problem: May I ask what growth inhibition has been recorded for CC1OC(OC2CCCc3c(O)c4c(c(O)c32)C(=O)c2ccccc2C4=O)CC(N)C1O (stereo unspecified) ?
Solution: 66.2% (inactive)

Problem: May I ask what growth inhibition has been recorded for CC(=O)OCC1OC(O[C@H]2C=C[C@@H](C(=O)OCc3ccccc3)n3c(=O)n(-c4ccccc4)c(=O)n32)C(OC(C)=O)C(OC(C)=O)C1OC(C)=O (stereo partly specified) ?
Solution: 28.9% (inactive)

Problem: May I ask what growth inhibition has been recorded for CC1(C)C(C=O)=CCC1CC(N)=O (stereo unspecified) ?
Solution: 88.7% (active)

Problem: May I ask what growth inhibition has been recorded for `CCc1nc(N)nc(N)c1-c1ccc(NCCCCCCN)c([N+](=O)[O-])c1` ?
Solution: 97.2% (active)

Problem: May I ask what growth inhibition has been recorded for `O=S(=O)(N/N=C/c1cccc(Cl)c1)c1ccccc1` ?
Solution: 96.8% (active)

Problem: May I ask what growth inhibition has been recorded for NP1(Oc2ccc(F)cc2)=NP(N)(Oc2ccc(F)cc2)=NP(Oc2ccc(F)cc2)(Oc2ccc(F)cc2)=N1 (stereo unspecified) ?
Solution: 88.2% (active)

Problem: May I ask what growth inhibition has been recorded for `C=C1N(C)c2ccc(Cl)cc2C1(C)C` ?
Solution: 88.9% (active)

Problem: May I ask what growth inhibition has been recorded for `NC(=O)N1c2ccccc2C=Cc2ccccc21` ?
Solution: -6.9% (inactive)

Problem: May I ask what growth inhibition has been recorded for `CCOC(=O)[C@]1(Br)CC[C@@]1(Br)C(=O)OCC` ?
Solution: 91% (active)

Problem: May I ask what growth inhibition has been recorded for `OB(O)c1ccccc1C#Cc1ccccc1B(O)O` ?
Solution: 68.2% (inactive)

Problem: May I ask what growth inhibition has been recorded for `N#C/C(=C1C=C/C(=N/O)c2ccccc2/1)c1ccccc1` ?
Solution: 91.5% (active)

Problem: May I ask what growth inhibition has been recorded for Nc1nc2c(c(=O)[nH]1)NC(CCNc1ccc(C(=O)O)cc1)CN2 (stereo unspecified) ?
Solution: 4.25% (inactive)

Problem: May I ask what growth inhibition has been recorded for `O/N=C/C1c2ccccc2-c2ccccc21` ?
Solution: 97.3% (active)

Problem: May I ask what growth inhibition has been recorded for `Cc1ccc(S(=O)(=O)N(C)c2ccc(Cl)cc2C2=NCCc3ccccc32)cc1` ?
Solution: 90.4% (active)

Problem: May I ask what growth inhibition has been recorded for `O=NN(CCCl)C(=O)NCCCl` ?
Solution: 43% (inactive)

Problem: May I ask what growth inhibition has been recorded for `N#C/C(=C1C=C(Br)/C(=N\O)C=C\1Cl)c1cccc2ccccc12` ?
Solution: 89.3% (active)

Problem: May I ask what growth inhibition has been recorded for `S=P(N1CC1)(N1CC1)N1CC1` ?
Solution: -2.75% (inactive)

Problem: May I ask what growth inhibition has been recorded for `O=c1ccc(N=Nc2ccccc2)ccc1O` ?
Solution: 98.8% (active)

Problem: May I ask what growth inhibition has been recorded for `Cc1ccc2occ/c(=N\Nc3ccccc3)c2c1` ?
Solution: 68.3% (inactive)

Problem: May I ask what growth inhibition has been recorded for `Cc1cc(C(C)(C)CC(C)(C)C)cc(O)c1O` ?
Solution: 92% (active)

Problem: May I ask what growth inhibition has been recorded for `O=C(NCCCCCN1CCC2(CCCCC2)CC1)C(C1CCCCC1)C1CCCCC1` ?
Solution: 99.5% (active)

Problem: May I ask what growth inhibition has been recorded for `O=C(Nc1ccc2c(c1)Cc1c-2ccc([N+](=O)[O-])c1F)C(F)(F)F` ?
Solution: 18.4% (inactive)

Problem: May I ask what growth inhibition has been recorded for CC1=CC2C(C(C)C)CC1C1C(=O)OC(=O)C21 (stereo unspecified) ?
Solution: 76.4% (active)

Problem: May I ask what growth inhibition has been recorded for `Cc1cccc(/C=N\NC(=S)N2CCCCC2)n1` ?
Solution: 88.7% (active)

Problem: May I ask what growth inhibition has been recorded for `S=c1nc(Cl)cc2[nH]c(Cl)cn12` ?
Solution: 96.5% (active)

Problem: May I ask what growth inhibition has been recorded for `O=C1CC(=O)N(C2CCCCC2)C(=O)N1c1ccccc1S(=O)(=O)Oc1ccccc1` ?
Solution: 41.4% (inactive)

Problem: May I ask what growth inhibition has been recorded for `Clc1cc(-c2ccccc2)nc2ccccc12` ?
Solution: 31.4% (inactive)

Problem: May I ask what growth inhibition has been recorded for CC(=O)Oc1ccc(N2C(=O)C3c4[nH]c5ccccc5c4C4CCC(C(C)(C)C)CC4C3C2=O)cc1 (stereo unspecified) ?
Solution: 98% (active)

Problem: May I ask what growth inhibition has been recorded for `NNC(=S)Nc1cccc2ccccc12` ?
Solution: 49.2% (inactive)

Problem: May I ask what growth inhibition has been recorded for `Nc1cc(S(N)(=O)=O)ccc1SSc1ccc(S(N)(=O)=O)cc1N` ?
Solution: 73% (active)

Problem: May I ask what growth inhibition has been recorded for Cc1cc(O)c2c(c1O)C(=O)C13C(=C2O)C(=O)C2C(O)C1C1C(O)C3C(=O)C3=C(O)c4c(O)cc(C)c(O)c4C(=O)C321 (stereo unspecified) ?
Solution: 63.4% (inactive)

Problem: May I ask what growth inhibition has been recorded for `COc1cc(CNc2ccc(C(C)C)cc2)cc(OC)c1OC` ?
Solution: 55.7% (inactive)

Ref: PubChem BioAssay (NCI)
